MEASURED QUANTITY: melting point

# count of solved cases: 8
[
  {
    "COMPOUND": "CC(C)(O)C(O)CONC(=O)c1ccc(F)c(F)c1Nc1ccc(I)cc1F (centres unmarked)",
    "melting point": "180 to 183 °C"
  },
  {
    "COMPOUND": "Cc1cc(I)ccc1Nc1cc(F)c(F)cc1C(=O)NOCCO",
    "melting point": "151.2 to 152.5 °C"
  },
  {
    "COMPOUND": "O=C(NOCCO)c1cc(F)c(F)c(F)c1Nc1ccc(I)cc1Cl",
    "melting point": "183 to 184.5 °C"
  },
  {
    "COMPOUND": "O=C(NOCCO)c1cc(Cl)c(F)c(F)c1Nc1ccc(I)cc1F",
    "melting point": "180 to 180.5 °C"
  },
  {
    "COMPOUND": "CNCCONC(=O)c1ccc(F)c(F)c1Nc1ccc(I)cc1C",
    "melting point": "183 to 185 °C (dec.)"
  },
  {
    "COMPOUND": "CC(C)(CO)ONC(=O)c1ccc(F)c(F)c1Nc1ccc(I)cc1F",
    "melting point": "182 to 183 °C"
  },
  {
    "COMPOUND": "CC1(C)OCC(ONC(=O)c2ccc(F)c(F)c2Nc2ccc(I)cc2F)CO1",
    "melting point": "154 to 155 °C"
  },
  {
    "COMPOUND": "O=C(NOCCO)c1cc(F)c(F)cc1Nc1ccc(Br)cc1F",
    "melting point": "190.8 to 192.5 °C"
  }
]

Prompt: So what does the record say about melting point for O=C(NOCCO)c1ccc(F)cc1Nc1ccc(I)cc1F ?
Completion: 117 to 119 °C

----------
Measured melting point by item

Prompt: So what does the record say about melting point for C=COCCONC(=O)c1cc(Br)c(F)c(F)c1Nc1ccc(I)cc1F [Example 61] ?
Completion: 128 to 130 °C

Prompt: Entry Cc1cc(I)ccc1Nc1cc(F)c(Br)cc1C(=O)NOCCO [Example 16] please
Completion: 154.4 to 156.4 °C

Prompt: Also check O=C(NOC[C@@H]1C[C@H]1CO)c1cc(Cl)c(F)c(F)c1Nc1ccc(I)cc1F (relative stereo) [Example 75]
Completion: 152.5 to 153.1 °C

Prompt: Query O=C(NOCCCCO)c1ccc(F)c(F)c1Nc1ccc(I)cc1F [Example 33] next
Completion: 131.4 to 131.9 °C

Prompt: What about this compound? Cc1cc(I)ccc1Nc1c(C(=O)NOCC(O)CO)cc(Cl)c(F)c1F (centres unmarked) [Example 35]
Completion: 67 to 69 °C

----------
MEASURED QUANTITY: melting point

Study these solved cases before continuing.
[
  {
    "COMPOUND": "O=C(NOCCO)c1ccc(F)c(F)c1Nc1ccc(Cl)cc1F",
    "melting point": "142.1 to 142.5 °C"
  },
  {
    "COMPOUND": "O=C(NOC[C@@H]1C[C@H]1CO)c1ccc(F)c(F)c1Nc1ccc(I)cc1F (relative stereo)",
    "melting point": "128.5 to 128.7 °C"
  },
  {
    "COMPOUND": "O=C(NOCC(O)C(F)(F)F)c1cc(Br)c(F)c(F)c1Nc1ccc(I)cc1Cl (stereo not shown)",
    "melting point": "186.9 to 187.3 °C"
  },
  {
    "COMPOUND": "Cc1cc(I)ccc1Nc1c(C(=O)NOCCCO)cc(Cl)c(F)c1F",
    "melting point": "155.2 to 156.6 °C"
  },
  {
    "COMPOUND": "O=C(NOCCO)c1cc(Cl)c(F)c(F)c1Nc1ccc(I)cc1Cl",
    "melting point": "178 to 181 °C"
  }
]

Prompt: Fill in: melting point of O=C(NOC(CO)CO)c1cc(Cl)c(F)c(F)c1Nc1ccc(I)cc1F is ___
Completion: 173 to 175 °C

Prompt: Also Cc1cc(I)ccc1Nc1c(C(=O)NOCCO)cc(Cl)c(F)c1F , if possible.
Completion: 199.1 to 200.8 °C

Prompt: Cool, now O=C(c1ccc(F)c(F)c1Nc1ccc(I)cc1F)N1CC(O)CO1 (stereo not shown)
Completion: 122 to 124 °C

Prompt: Another compound to check: Cc1cc(I)ccc1Nc1cc(F)ccc1C(=O)NOCCCO
Completion: 120.8 to 122.4 °C
